molecular target: FAAH (Rattus norvegicus, UniProt P97612); construct: Preparation of Rat Brain Membranes Preparations (FAAH Enzyme Solution); from tissue; host or cells: rat cerebrum (brain membrane preparation); assay: Determination of FAAH inhibitory activity in rat (rat brain membrane preparations, [3H]-anandamide hydrolysis); assay type: biochemical; settings: rat brain membrane preparations; test substance 0.1 nM to 1 μM; read-out: FAAH Inhibition IC50
Sequence (P97612 whole entry): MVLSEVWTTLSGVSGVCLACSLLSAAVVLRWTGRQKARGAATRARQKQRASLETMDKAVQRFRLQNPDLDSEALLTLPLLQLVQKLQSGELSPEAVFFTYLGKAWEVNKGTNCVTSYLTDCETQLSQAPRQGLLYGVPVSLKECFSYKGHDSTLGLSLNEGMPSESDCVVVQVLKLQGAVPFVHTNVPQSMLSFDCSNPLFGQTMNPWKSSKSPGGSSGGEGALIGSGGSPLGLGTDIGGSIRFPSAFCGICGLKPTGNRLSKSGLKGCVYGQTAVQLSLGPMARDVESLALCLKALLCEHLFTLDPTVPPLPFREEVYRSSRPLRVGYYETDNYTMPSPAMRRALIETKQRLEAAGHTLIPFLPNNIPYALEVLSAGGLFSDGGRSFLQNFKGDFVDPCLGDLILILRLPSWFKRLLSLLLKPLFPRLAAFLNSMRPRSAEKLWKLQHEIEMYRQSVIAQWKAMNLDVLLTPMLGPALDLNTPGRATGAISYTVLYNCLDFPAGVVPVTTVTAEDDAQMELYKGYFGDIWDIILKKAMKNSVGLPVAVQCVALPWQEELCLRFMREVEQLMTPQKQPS
Measured metric: pIC50
Notebook: values listed as pIC50 are -log10 of the concentration (mol/L).

# return recorded pIC50 for entry "COCc1ncc2c(n1)n(C)c(=O)n2C(=O)N1CC[C@@H](Oc2ccccc2F)C1"
7.27

Fill in pIC50 for record "Cn1c(=O)n(C(=O)N2CCC2)c2cnc(COc3cccc(Cl)c3)nc21"
7.04

Indicate the recorded pIC50 value for this compound: "COc1cccc(-c2ncc3c(n2)n(C)c(=O)n3C(=O)N2CCN(Cc3ccc(C(F)(F)F)cc3)CC2)c1"
7.36

Output pIC50 of "COCc1ncc2c(n1)n(C)c(=O)n2C(=O)N1CC(c2ccccc2OC)C1"
8.00

Name the recorded pIC50 of the compound listed here: "COc1cccc(Cc2ncc3c(n2)n(C(=O)N2CCCC2)c(=O)n3C)c1"
7.33

Entry "Cn1c(=O)n(C(=O)N2CCC2)c2nc(CCc3ccc(C4CC4)cc3)ncc21" needs its pIC50 filled in; supply it.
7.80

Determine its reported pIC50: "COc1ccc(-c2ncc3c(n2)n(C(=O)N2CCCC2)c(=O)n3C)cc1"
7.29

Indicate the recorded pIC50 value for this compound: "CCOc1cccc(-c2ncc3c(n2)n(C)c(=O)n3C(=O)N2CCCC2)c1"
8.15

Query pIC50 for "CCCCc1ccc(CCc2ncc3c(n2)n(C(=O)N(C)C)c(=O)n3C)cc1"
8.30

Please indicate pIC50 recorded for "CN(C)C(=O)n1c(=O)n(C)c2cnc(-c3ccc(Cl)cc3)nc21"
7.92

Check the records and state pIC50 for "Cn1c(=O)n(C(=O)N2CCCC2)c2cnc(-c3cc(C(F)(F)F)ccc3F)nc21"
7.14

Give the value of pIC50 reported for the following: "Cn1c(=O)n(C(=O)N2CCCC2)c2nc(-c3ccc(-c4ccccc4)cc3)ncc21"
7.28

Please look at this compound and report its pIC50: "COc1cccc(-c2ncc3c(n2)n(C)c(=O)n3C(=O)N(C)CCc2ccc(Cl)cc2)c1"
8.70

Please look at this compound and report its pIC50: "Cn1c(=O)n(C(=O)N2CCCC2)c2cnc(CCc3cccc(F)c3)nc21"
7.38

Please look at this compound and report its pIC50: "Cn1c(=O)n(C(=O)N2CCCC2)c2cnc(Cc3ccc(Cl)cc3)nc21"
7.40

Give the reported value of pIC50 for this record: "Cn1c(=O)n(C(=O)N2CCCC2)c2nc(Cc3ccc(F)cc3)ncc21"
7.37
